System: U-251
Experiment: Antiproliferative activity against human U-251 assessed as cell viability incubated for 48 hrs by MTT assay
Assay type: functional, cell-based
Conditions: U-251, 48 h
Field: IC50. Provide a value for each of the compounds that follow.
// note: answer is a bare numeric in nM

Recall the recorded IC50 for CNC(=O)c1ccccc1Nc1nc(Nc2ccc(N3CCN(CCOC(=O)CCCc4ccc(N(CCCl)CCCl)cc4)CC3)cc2)ncc1C(F)(F)F with U-251 and state it.
20

Do the same for CNC(=O)c1ccccc1Nc1nc(Nc2ccc(N3CCN(CCOC(=O)c4ccc(N(CCCl)CCCl)cc4)CC3)cc2)ncc1C(F)(F)F please
31

Would you kindly repeat that for CNC(=O)c1ccccc1Nc1nc(Nc2ccc(N3CCN(CCOC(=O)c4ccc(N(CCCl)CCCl)cc4)CC3)cc2)ncc1Cl ?
1210

What do we get for CNC(=O)c1ccccc1Nc1nc(Nc2ccc(N3CCN(CCOC(=O)CCCc4ccc(N(CCCl)CCCl)cc4)CC3)cc2)ncc1Cl ?
485

Same for CNC(=O)c1ccccc1Nc1nc(Nc2ccc(N3CCOCC3)cc2OC)ncc1Cl
5840

Input CNC(=O)c1ccccc1Nc1nc(Nc2ccc(N3CCN(CCOC(=O)CCCc4ccc(N(CCCl)CCCl)cc4)CC3)cc2)ncc1Br
81

Subsequent entry: CNC(=O)c1ccccc1Nc1nc(Nc2ccc(N3CCN(CCO)CC3)cc2)ncc1Cl
194

Also, CNC(=O)c1ccccc1Nc1nc(Nc2ccc(N3CCN(C(=O)CCCc4ccc(N(CCCl)CCCl)cc4)CC3)cc2)ncc1Cl please.
3700

// same read-out, input: CNC(=O)c1ccccc1Nc1nc(Nc2ccc(N3CCN(C(=O)c4ccc(N(CCCl)CCCl)cc4)CC3)cc2)ncc1Cl
6260

What about CNC(=O)c1ccccc1Nc1nc(Nc2ccc(N3CCN(CCOC(=O)CCCc4ccc(N(CCCl)CCCl)cc4)CC3)cc2)ncc1[N+](=O)[O-] ?
849

Try CNC(=O)c1ccccc1Nc1nc(Nc2ccc(N3CCN(CCOC(=O)CCCc4ccc(N(CCCl)CCCl)cc4)CC3)cc2)ncc1C next.
168

Queued: CNC(=O)c1ccccc1Nc1nc(Nc2ccc(N3CCNCC3)cc2)ncc1Cl
79

Also need CNC(=O)c1ccccc1Nc1nc(Nc2ccc(N3CCN(C)CC3)cc2)ncc1Cl , thanks.
64

Also CNC(=O)c1ccccc1Nc1nc(Nc2ccc(C3CCN(C(=O)CCCc4ccc(N(CCCl)CCCl)cc4)CC3)cc2)ncc1Cl ?
18200
